# Test system: CCRF-CEM
# protocolSummary: NCI tumour cell line growth inhibition, 48 h
Active and inactive are the calls of the source. Rule as the data show it: active = GI50 up to about 1.1 µM and inactive = higher.
Pick one and only one: 1.0 = active, 0.0 = inactive

Use these answered entries as a reference point.
{"molecule": "Cc1ccc(C2=C(c3ccc(C)cc3)C(c3ccc(C)cc3)=C(c3ccc(C)cc3)C2=O)cc1", "qualitativeLabel": 0.0}
{"molecule": "CC(C)CCc1c(Cl)nc(Cl)nc1Cl", "qualitativeLabel": 1.0}
{"molecule": "Cc1coc2c1CC1OC1(C)CCC1OC1(C)C2 (configuration not stated)", "qualitativeLabel": 0.0}

Next:
query: Which result was noted for this molecule in the test: O=S1(=O)c2ccccc2N(c2ccccc2)c2nnnn21
result: 0.0
